Value source: ChEMBL document CHEMBL5724796

- target.or.system: Cyclin-dependent kinase 2 (Homo sapiens)
- condition.label: Compound concentration 20.0 uM
- Description: Thermal Shift Assay. Domain: start/stop: M1-L298
result.type: ΔTm
Field note: include the unit after the figure.

// known answers, use as guide
[
  {
    "compound": "Cc1ccsc1C(=CCCN1CCC[C@@H](C(=O)O)C1)c1sccc1C",
    "result.type": "ΔTm",
    "reported.result": "0.86 °C"
  },
  {
    "compound": "CS(=O)(=O)Nc1ccc2oc3c(OC(F)F)ccc(C(=O)Nc4c(Cl)cncc4Cl)c3c2c1",
    "result.type": "ΔTm",
    "reported.result": "-0.16 °C"
  },
  {
    "compound": "COC(=O)C1=C(C(=O)OC)[C@@]2([C@@H](Cc3ccc(C)cc3)Nc3ccccc3)C=C[C@@H]1O2",
    "result.type": "ΔTm",
    "reported.result": "0.54 °C"
  },
  {
    "compound": "NC(=O)C1CCCc2c1[nH]c1ccc(Cl)cc21 (configuration not stated)",
    "result.type": "ΔTm",
    "reported.result": "0.2 °C"
  },
  {
    "compound": "CC(=O)N1CCc2c(c(N3CCCc4cc(-c5cnn(C)c5)c(C(F)F)cc43)nn2C2CCOCC2)C1",
    "result.type": "ΔTm",
    "reported.result": "-0.16 °C"
  }
]

Ask | // lookup ΔTm | system=Cyclin-dependent kinase 2 (Homo sapiens) | key= "CC(=O)O[C@]1(C(C)=O)CC[C@H]2[C@@H]3C=C(Cl)C4=CC(=O)[C@@H]5C[C@@H]5[C@]4(C)[C@H]3CC[C@@]21C"
Reply | 0.15 °C

Ask | Subsequent entry: "CC(=O)OCCN1C(=O)c2c(C)nc3ccc(S(=O)(=O)N4CCOCC4)cc3c2C1=O"
Reply | -0.16 °C

###

The entries below come with measured ΔTm values attached.
- target.or.system: Bromodomain-containing protein 4 (Homo sapiens) (UniProt O60885)
- condition.label: Compound concentration 20.0 uM
Note: unit °C is implicit; provide only the numeric part.

[
  {
    "given.smiles": "CC(C)NC(=O)c1ccc(OC(F)F)c(OCC2CC2)c1",
    "target.or.system": "Bromodomain-containing protein 4 (Homo sapiens) (UniProt O60885)",
    "reported.result": -3.14
  },
  {
    "given.smiles": "C[C@@H](Oc1ccc(S(C)(=O)=O)cc1C(=O)N1C[C@@H]2C[C@]2(c2cc(C(F)(F)F)on2)C1)C(F)(F)F",
    "target.or.system": "Bromodomain-containing protein 4 (Homo sapiens) (UniProt O60885)",
    "reported.result": -3.24
  },
  {
    "given.smiles": "CCn1c(=O)c(C)cn(Cc2nnc(-c3ccc(F)c(O)c3F)s2)c1=O",
    "target.or.system": "Bromodomain-containing protein 4 (Homo sapiens) (UniProt O60885)",
    "reported.result": -1.52
  }
]

Kindly review the next molecule as well.
Ask | What does the record list as ΔTm for "O=C(NCCCn1ccnc1)c1cc2nc(-c3ccccc3)cc(-c3ccccc3)n2n1" ?
Reply | -2.23

###

- target.or.system: Bromodomain-containing protein 4 (Homo sapiens) (UniProt O60885)
- condition.label: Compound concentration 20.0 uM
result.type: ΔTm
Output should be the measured figure followed by the unit it is expressed in.

[
  {
    "molecule": "COc1nc(N)nc(Nc2cc(S(N)(=O)=O)ccc2N[C@@H](c2cccc3c2OC(F)(F)O3)c2ncccc2Cl)n1",
    "target.or.system": "Bromodomain-containing protein 4 (Homo sapiens) (UniProt O60885)",
    "ΔTm": "-2.02 °C"
  }
]

Ask | API: value(readout=ΔTm, system=Bromodomain-containing protein 4 (Homo sapiens) (UniProt O60885)) for record "Nc1cc(F)ccc1NC(=O)c1ccc(CNC(=O)/C=C/c2cccnc2)cc1"
Reply | -1.97 °C

Ask | Now consider CCC1CCCCN1C(=O)n1ncc(C(O)(c2ccccc2)c2ccccc2)n1 (stereo not drawn) and answer again.
Reply | -3.03 °C
